- ASSAY_TARGET: human TRPM8 (Homo sapiens, UniProt Q7Z2W7)
- Construct: expressed in transfected cells; host or cells: Chinese hamster ovary (CHO) cells, T-REx tetracycline-inducible system, co-transfected with aequorin
- Sequence (Q7Z2W7 whole entry): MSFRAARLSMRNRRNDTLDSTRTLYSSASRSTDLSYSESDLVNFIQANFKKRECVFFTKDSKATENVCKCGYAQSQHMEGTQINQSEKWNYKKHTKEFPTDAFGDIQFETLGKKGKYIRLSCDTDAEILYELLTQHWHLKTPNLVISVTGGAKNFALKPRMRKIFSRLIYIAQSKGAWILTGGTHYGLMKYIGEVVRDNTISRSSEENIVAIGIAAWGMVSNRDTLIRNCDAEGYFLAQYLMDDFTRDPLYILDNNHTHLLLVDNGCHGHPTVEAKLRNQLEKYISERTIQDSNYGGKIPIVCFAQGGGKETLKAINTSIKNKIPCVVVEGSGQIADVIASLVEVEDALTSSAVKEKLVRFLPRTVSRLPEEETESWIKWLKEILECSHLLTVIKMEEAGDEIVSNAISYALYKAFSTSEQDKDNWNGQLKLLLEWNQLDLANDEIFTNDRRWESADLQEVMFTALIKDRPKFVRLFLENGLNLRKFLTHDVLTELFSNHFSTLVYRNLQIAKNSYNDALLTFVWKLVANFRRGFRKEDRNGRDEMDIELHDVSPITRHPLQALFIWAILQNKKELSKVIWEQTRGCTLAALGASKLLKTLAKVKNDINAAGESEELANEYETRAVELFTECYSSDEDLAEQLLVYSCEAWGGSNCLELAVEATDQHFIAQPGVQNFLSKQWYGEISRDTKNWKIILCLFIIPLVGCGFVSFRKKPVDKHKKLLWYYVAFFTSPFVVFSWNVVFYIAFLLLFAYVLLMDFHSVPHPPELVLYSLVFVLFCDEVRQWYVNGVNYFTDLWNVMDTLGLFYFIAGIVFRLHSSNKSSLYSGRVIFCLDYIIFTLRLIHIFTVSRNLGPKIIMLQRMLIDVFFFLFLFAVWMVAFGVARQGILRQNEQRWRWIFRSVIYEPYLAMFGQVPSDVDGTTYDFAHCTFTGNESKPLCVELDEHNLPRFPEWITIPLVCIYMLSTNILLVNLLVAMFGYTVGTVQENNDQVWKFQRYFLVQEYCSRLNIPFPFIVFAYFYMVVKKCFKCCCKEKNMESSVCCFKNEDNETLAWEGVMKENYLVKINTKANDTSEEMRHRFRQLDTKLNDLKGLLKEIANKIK
- PROTOCOL_DESCRIPTION: Luminescence readout assay for measuring intracellular calcium, icilin activation
- Assay type: cell-based
- REPORTED_CONDITIONS: CHO cells expressing human TRPM8, aequorin luminescence, 1 μM icilin activation; read-out: hTRPM8 IC50
READOUT_LABEL: pIC50
Scale explanation: pIC50 corresponds to minus log10 of a concentration expressed in moles per litre.

MOLECULE: COC(=O)c1ccc(C(=O)N[C@@H](c2ccc(OC(F)(F)F)c(F)c2)c2ncccc2F)nc1
ASSAY_TARGET: human TRPM8 (Homo sapiens, UniProt Q7Z2W7)
pIC50: 6.72
//
MOLECULE: O=C(N[C@@H](c1ccc(C(F)(F)F)cc1)c1ncccc1C(F)(F)F)c1ccc2c(c1)CNC2=O
ASSAY_TARGET: human TRPM8 (Homo sapiens, UniProt Q7Z2W7)
pIC50: 8.05
//
MOLECULE: O=C(N[C@@H](c1ccc(OC(F)(F)F)c(F)c1)c1ccc(F)cn1)c1ccc(=O)[nH]c1
ASSAY_TARGET: human TRPM8 (Homo sapiens, UniProt Q7Z2W7)
pIC50: 7.28

Entry under review: "O=C(N[C@@H](c1cnc2ccc(Cl)cc2c1)c1ncccc1C(F)(F)F)c1ccc(=O)[nH]c1" . Reported pIC50?
7.09

Which pIC50 is listed for "O=C1CCc2cc(C(=O)N[C@@H](c3ccc(C(F)(F)F)cc3)c3ncccc3F)ccc2N1" ?
7.53

State the recorded pIC50 for this entry: "O=C1Cc2ccc(C(=O)N[C@@H](c3ccc(C(F)(F)F)cc3)c3ncccc3F)cc2N1"
8.04

Look up pIC50 for this molecule: "O=C(N[C@@H](c1ccc(OC(F)(F)F)c(F)c1)c1ccccn1)c1ccc2[nH]c(=O)oc2c1"
7.93

Query (molecule): "Cc1cccnc1[C@@H](NC(=O)c1ccc2[nH]c(=O)oc2c1)c1ccc(C(F)(F)F)cc1" ; field requested: pIC50
7.59

Look up pIC50: O=C(NC(c1ccc(OC(F)(F)F)c(F)c1)c1ccc(F)cc1F)c1ccc(=O)[nH]c1 (stereo not shown)
6.71

Any idea what pIC50 was measured for "COc1ncc(C(=O)N[C@@H](c2ccc(C(F)(F)F)cc2)c2ncccc2F)cn1" ?
6.60

What value of pIC50 has been recorded for this entry: "C[C@H](O)Cn1cc(C(=O)N[C@@H](c2ccc(OC(F)(F)F)c(F)c2)c2ncccc2F)ccc1=O"
7.44

Please give the measured pIC50 for this molecule: "O=C(N[C@@H](c1ccc(C(F)(F)F)cc1)c1ncccc1C(F)(F)F)c1ccc(OC(F)(F)F)cc1"
6.34

Look at this molecule and give its reported pIC50. "O=C(CCc1ccccn1)N[C@@H](c1ccc(C(F)(F)F)cc1)c1ncccc1C(F)(F)F"
6.46

// query pIC50 value for entry "O=C(N[C@@H](c1ccc(C(F)(F)F)cc1)c1ncccc1F)c1n[nH]c2c1CCCC2"
6.69

Find the recorded pIC50 belonging to "Cc1cccnc1[C@@H](NC(=O)c1ccc2oc(=O)[nH]c2c1)c1ccc(C(F)(F)F)cc1" and report it.
8.28

pIC50 lookup needed for "O=C(N[C@@H](c1ccc(C(F)(F)F)c(F)c1)c1ccccc1C(F)(F)F)c1ccc2ncccc2c1" , thanks.
6.96
